# SETUP_CONDITIONS: 313.15 K; 101.33 kPa; Liquid
MEASUREMENT_TYPE: speed of sound (m/s)

Which speed of sound value belongs to `CC1CCCCC1` ?
1150

Which speed of sound value belongs to `C1CCCC1` ?
1129

Which speed of sound value belongs to COC(=O)OC [dimethyl carbonate] ?
1134

Which speed of sound value belongs to CCOC(=O)OCC [diethyl carbonate] ?
1116

----------
# SETUP_CONDITIONS: 298.15 K; 101.33 kPa; Liquid
MEASUREMENT_TYPE: speed of sound (m/s)

Which speed of sound value belongs to COC(=O)OC [dimethyl carbonate] ?
1198

Which speed of sound value belongs to `CC1CCCCC1` ?
1215

Which speed of sound value belongs to `C1CCCC1` ?
1206

Which speed of sound value belongs to CCOC(=O)OCC [diethyl carbonate] ?
1177
